meta.source: ChEMBL document CHEMBL4364254

molecular target: Prostaglandin G/H synthase 1 (Homo sapiens, UniProt P23219); assay: Activity at human recombinant COX1 using arachidonic acid as substrate measured after 3 mins by ADHP reagent based fluorescence assay
pEC50: −log10 of the molar value.
endpoint_label: pEC50

Task: Dear colleague, please send me the reported pEC50 for `O=C(Nc1ccc(OC(F)F)nc1)NC1CCN(c2ncnc3c2nc(-c2ccccc2Cl)n3-c2ccc(Cl)cc2)CC1` when you can.
Result: < 5.00

====

target: Kappa-type opioid receptor (Homo sapiens, UniProt P41145); assay: Displacement of [3H]U69593 from recombinant human KOR after 60 mins by scintillation counting analysis
Sequence (P41145 whole entry): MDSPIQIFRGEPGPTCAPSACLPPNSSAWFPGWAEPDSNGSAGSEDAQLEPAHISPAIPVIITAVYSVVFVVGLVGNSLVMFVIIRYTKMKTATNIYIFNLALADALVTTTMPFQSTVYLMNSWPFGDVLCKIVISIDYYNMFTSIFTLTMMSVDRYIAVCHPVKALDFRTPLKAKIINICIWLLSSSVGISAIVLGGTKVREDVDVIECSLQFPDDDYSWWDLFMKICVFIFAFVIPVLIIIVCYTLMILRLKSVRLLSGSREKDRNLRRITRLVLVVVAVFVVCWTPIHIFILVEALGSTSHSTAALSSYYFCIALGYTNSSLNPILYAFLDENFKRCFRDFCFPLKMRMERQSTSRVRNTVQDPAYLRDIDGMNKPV
endpoint_label: EC50

Task: Dear colleague, please send me the reported EC50 for `O=C(Nc1ccc(OC(F)F)nc1)NC1CCN(c2ncnc3c2nc(-c2ccccc2Cl)n3-c2ccc(Cl)cc2)CC1` when you can.
Result: > 10 µM

====

target: GABA-A receptor; anion channel; experiment: Displacement of [3H]flunitrazepam from rat brain GABAA ion channel after 60 mins by scintillation counting analysis
pIC50: −log10 of the molar value.
endpoint_label: pIC50

Task: Dear colleague, please send me the reported pIC50 for `O=C(Nc1ccc(OC(F)F)nc1)NC1CCN(c2ncnc3c2nc(-c2ccccc2Cl)n3-c2ccc(Cl)cc2)CC1` when you can.
Result: < 5.00

====

target: Glutamate NMDA receptor; experiment: Displacement of [3H]CGP 39653 from rat brain NMDA receptor after 60 mins by scintillation counting analysis
endpoint_label: IC50

Task: Dear colleague, please send me the reported IC50 for `O=C(Nc1ccc(OC(F)F)nc1)NC1CCN(c2ncnc3c2nc(-c2ccccc2Cl)n3-c2ccc(Cl)cc2)CC1` when you can.
Result: > 10 µM

====

target: D(2) dopamine receptor (Homo sapiens, UniProt P14416); experiment: Displacement of [3H]7-OH-DPAT from recombinant human D2s receptor after 60 mins by scintillation counting analysis
Sequence (P14416 whole entry): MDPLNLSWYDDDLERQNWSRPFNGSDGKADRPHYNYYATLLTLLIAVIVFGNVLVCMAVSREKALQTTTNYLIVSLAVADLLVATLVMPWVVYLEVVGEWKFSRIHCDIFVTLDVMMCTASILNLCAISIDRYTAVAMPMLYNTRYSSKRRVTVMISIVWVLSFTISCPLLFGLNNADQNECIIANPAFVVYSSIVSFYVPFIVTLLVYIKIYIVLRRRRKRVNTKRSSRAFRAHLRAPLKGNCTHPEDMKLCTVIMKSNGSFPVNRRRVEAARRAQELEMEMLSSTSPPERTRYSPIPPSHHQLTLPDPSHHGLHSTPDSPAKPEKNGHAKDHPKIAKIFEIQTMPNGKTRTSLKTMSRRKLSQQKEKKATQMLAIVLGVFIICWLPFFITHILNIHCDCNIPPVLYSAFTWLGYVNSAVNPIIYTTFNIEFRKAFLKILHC
endpoint_label: IC50

Task: Look up and report IC50, with D(2) dopamine receptor (Homo sapiens, UniProt P14416) as system, for `O=C(Nc1ccc(OC(F)F)nc1)NC1CCN(c2ncnc3c2nc(-c2ccccc2Cl)n3-c2ccc(Cl)cc2)CC1`
Result: > 10 µM

====

As an illustration, consider measured pKi for compounds on Cannabinoid receptor 1 (Homo sapiens).
Sequence (P21554 whole entry): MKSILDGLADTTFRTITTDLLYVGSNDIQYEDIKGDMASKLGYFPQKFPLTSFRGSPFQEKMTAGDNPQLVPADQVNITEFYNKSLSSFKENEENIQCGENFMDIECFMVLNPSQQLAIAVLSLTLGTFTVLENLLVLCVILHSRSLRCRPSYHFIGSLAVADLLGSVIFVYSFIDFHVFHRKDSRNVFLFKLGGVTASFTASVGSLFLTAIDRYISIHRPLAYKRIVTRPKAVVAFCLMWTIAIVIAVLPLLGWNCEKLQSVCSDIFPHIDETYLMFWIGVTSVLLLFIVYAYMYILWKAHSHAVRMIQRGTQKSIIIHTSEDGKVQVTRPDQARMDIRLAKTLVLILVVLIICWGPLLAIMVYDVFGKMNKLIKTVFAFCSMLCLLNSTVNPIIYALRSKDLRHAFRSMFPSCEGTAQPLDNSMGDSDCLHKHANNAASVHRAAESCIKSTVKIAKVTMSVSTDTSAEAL
Hey, just a heads up that pKi is the negative log base 10 of the concentration in molar.

Some compounds with known pKi results, for comparison:
{"smiles_data": "CC1(NC(=O)Nc2ccc(F)cc2F)CCN(c2ncnc3c2nc(-c2ccccc2Cl)n3-c2ccc(Cl)cc2)CC1", "pKi": 8.22}
{"smiles_data": "O=C(NC1CCCCC1)NC1CCN(c2ncnc3c2nc(-c2ccccc2Cl)n3-c2ccc(Cl)cc2)CC1", "pKi": 8.85}
{"smiles_data": "O=C(NC1CCN(c2ncnc3c2nc(-c2ccccc2Cl)n3-c2ccc(Cl)cc2)CC1)NC1(C(F)(F)F)CCCC1", "pKi": 8.20}
{"smiles_data": "CCCN(CC(F)(F)F)C(=O)NC1CCN(c2ncnc3c2nc(-c2ccccc2Cl)n3-c2ccc(Cl)cc2)CC1", "pKi": 8.96}

Task: Look up and report pKi, with Cannabinoid receptor 1 (Homo sapiens) as system, for `CC1(NC(=O)NC2CCC(F)(F)CC2)CCN(c2ncnc3c2nc(-c2ccccc2Cl)n3-c2ccc(Cl)cc2)CC1`
Result: 7.77

Task: Look up and report pKi, with Cannabinoid receptor 1 (Homo sapiens) as system, for `O=C(NCC1CCCCC1)NC1CCN(c2ncnc3c2nc(-c2ccccc2Cl)n3-c2ccc(Cl)cc2)CC1`
Result: 9.05

Task: Look up and report pKi, with Cannabinoid receptor 1 (Homo sapiens) as system, for `O=C(NC1CCN(c2ncnc3c2nc(-c2ccccc2Cl)n3-c2ccc(Cl)cc2)CC1)N1CCCCC1`
Result: 8.92

Task: Look up and report pKi, with Cannabinoid receptor 1 (Homo sapiens) as system, for `CC1(NC(=O)NCc2ccccc2F)CCN(c2ncnc3c2nc(-c2ccccc2Cl)n3-c2ccc(Cl)cc2)CC1`
Result: 7.82

Task: Look up and report pKi, with Cannabinoid receptor 1 (Homo sapiens) as system, for `O=C(NCC1CCCCC1)NC1CCN(c2ncnc3c2nc(-c2ccccc2Cl)n3-c2ccc(C(F)(F)F)nc2)CC1`
Result: 6.14

Task: Look up and report pKi, with Cannabinoid receptor 1 (Homo sapiens) as system, for `CC1(NC(=O)NC2CCCCC2)CCN(c2ncnc3c2nc(-c2ccccc2Cl)n3-c2ccc(Cl)cc2)CC1`
Result: 7.89

====

molecular target: Beta-1 adrenergic receptor (Homo sapiens); assay: Displacement of [3H](-)CGP12177 from recombinant human beta1 adrenergic receptor after 60 mins by scintillation counting analysis
Sequence (P08588 whole entry): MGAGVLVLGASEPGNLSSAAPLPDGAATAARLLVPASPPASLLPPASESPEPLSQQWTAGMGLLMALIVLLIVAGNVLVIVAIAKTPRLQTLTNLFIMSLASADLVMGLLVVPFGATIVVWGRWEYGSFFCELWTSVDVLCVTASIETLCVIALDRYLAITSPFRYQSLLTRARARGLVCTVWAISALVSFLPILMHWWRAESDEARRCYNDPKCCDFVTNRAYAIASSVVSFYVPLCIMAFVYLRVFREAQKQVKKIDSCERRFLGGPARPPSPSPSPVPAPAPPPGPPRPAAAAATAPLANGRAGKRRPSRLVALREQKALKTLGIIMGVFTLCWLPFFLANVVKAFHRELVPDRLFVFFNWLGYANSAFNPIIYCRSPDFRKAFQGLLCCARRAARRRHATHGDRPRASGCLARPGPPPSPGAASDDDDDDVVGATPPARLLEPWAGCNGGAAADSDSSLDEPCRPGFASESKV
pIC50: −log10 of the molar value.
endpoint_label: pIC50

Task: Dear colleague, please send me the reported pIC50 for `O=C(Nc1ccc(OC(F)F)nc1)NC1CCN(c2ncnc3c2nc(-c2ccccc2Cl)n3-c2ccc(Cl)cc2)CC1` when you can.
Result: < 5.00

====

target: 5-hydroxytryptamine receptor 2B (Homo sapiens); assay: Displacement of [125I](+/-)DOI from recombinant human 5HT2B receptor after 60 mins by scintillation counting analysis
Sequence (P41595 whole entry): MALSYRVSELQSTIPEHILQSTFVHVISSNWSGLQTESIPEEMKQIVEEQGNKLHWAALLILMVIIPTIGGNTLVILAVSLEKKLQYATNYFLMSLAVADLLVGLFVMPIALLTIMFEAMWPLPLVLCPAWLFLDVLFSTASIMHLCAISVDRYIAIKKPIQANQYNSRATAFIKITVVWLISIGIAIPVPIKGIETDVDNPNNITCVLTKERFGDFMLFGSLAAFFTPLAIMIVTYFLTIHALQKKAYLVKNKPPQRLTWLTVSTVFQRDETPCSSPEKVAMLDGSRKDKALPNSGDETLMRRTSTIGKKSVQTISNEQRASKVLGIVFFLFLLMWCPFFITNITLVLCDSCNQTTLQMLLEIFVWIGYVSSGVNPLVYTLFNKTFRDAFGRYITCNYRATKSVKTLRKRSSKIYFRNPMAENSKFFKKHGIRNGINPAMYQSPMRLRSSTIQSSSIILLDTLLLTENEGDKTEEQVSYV
pIC50: −log10 of the molar value.
endpoint_label: pIC50

Task: Dear colleague, please send me the reported pIC50 for `O=C(Nc1ccc(OC(F)F)nc1)NC1CCN(c2ncnc3c2nc(-c2ccccc2Cl)n3-c2ccc(Cl)cc2)CC1` when you can.
Result: < 5.00

====

molecular target: cGMP-inhibited 3',5'-cyclic phosphodiesterase 3A (Homo sapiens); experiment: Activity at human recombinant PDE3A using [3H]cAMP as substrate measured after 15 mins by scintillation counting analysis
Sequence (Q14432 whole entry): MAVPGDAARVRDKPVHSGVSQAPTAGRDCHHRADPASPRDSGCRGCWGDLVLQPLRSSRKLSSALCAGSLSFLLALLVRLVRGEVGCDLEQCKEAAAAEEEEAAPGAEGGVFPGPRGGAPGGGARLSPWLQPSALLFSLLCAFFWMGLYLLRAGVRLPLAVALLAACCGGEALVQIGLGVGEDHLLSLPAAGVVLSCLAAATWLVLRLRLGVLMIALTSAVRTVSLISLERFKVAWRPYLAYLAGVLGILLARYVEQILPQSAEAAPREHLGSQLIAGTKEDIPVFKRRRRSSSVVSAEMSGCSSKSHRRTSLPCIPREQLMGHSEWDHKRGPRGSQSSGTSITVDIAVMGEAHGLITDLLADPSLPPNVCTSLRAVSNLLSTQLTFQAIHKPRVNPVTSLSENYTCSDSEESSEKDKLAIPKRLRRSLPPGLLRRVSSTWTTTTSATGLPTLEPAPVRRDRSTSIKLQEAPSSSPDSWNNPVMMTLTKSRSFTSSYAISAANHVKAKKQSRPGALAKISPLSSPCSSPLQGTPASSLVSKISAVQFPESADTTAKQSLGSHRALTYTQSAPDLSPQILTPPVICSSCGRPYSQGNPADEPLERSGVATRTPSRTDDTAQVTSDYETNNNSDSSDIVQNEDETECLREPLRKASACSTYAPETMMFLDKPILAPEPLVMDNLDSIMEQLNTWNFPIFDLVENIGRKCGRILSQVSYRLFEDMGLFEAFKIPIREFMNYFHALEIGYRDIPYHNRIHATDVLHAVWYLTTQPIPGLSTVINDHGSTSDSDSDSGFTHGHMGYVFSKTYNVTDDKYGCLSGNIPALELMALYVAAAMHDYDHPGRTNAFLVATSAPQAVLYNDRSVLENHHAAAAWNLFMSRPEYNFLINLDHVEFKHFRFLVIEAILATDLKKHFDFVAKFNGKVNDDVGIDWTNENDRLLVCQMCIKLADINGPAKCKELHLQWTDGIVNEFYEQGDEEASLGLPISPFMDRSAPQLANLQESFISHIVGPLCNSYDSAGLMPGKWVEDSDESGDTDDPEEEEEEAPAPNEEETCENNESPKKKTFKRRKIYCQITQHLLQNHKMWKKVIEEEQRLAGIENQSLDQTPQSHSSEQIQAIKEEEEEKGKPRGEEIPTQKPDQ
endpoint_label: IC50

Task: Look up and report IC50, with cGMP-inhibited 3',5'-cyclic phosphodiesterase 3A (Homo sapiens) as system, for `O=C(Nc1ccc(OC(F)F)nc1)NC1CCN(c2ncnc3c2nc(-c2ccccc2Cl)n3-c2ccc(Cl)cc2)CC1`
Result: > 10 µM

====

Measured Ratio Ki accompanies every entry in the list below.
species: Homo sapiens; test: Selectivity ratio of Ki for displacement of [3H]CP55940 from human CB2 receptor expressed in HEK293 cell membranes to Ki for displacement of [3H]CP55940 from human CB1 receptor expressed in HEK293 cell membranes
No unit in the answer, only the number.

Some molecules with known Ratio Ki results, for comparison:
{"smiles_data": "O=C(NC1CCN(c2ncnc3c2nc(-c2ccccc2Cl)n3-c2ccc(Cl)cc2)CC1)N1CCCCC1", "Ratio Ki": 330}
{"smiles_data": "CC1(NS(=O)(=O)NC2CCCCC2)CCN(c2ncnc3c2nc(-c2ccccc2Cl)n3-c2ccc(Cl)cc2)CC1", "Ratio Ki": 82}
{"smiles_data": "CC1(NC(=O)NCc2ccccc2F)CCN(c2ncnc3c2nc(-c2ccccc2Cl)n3-c2ccc(Cl)cc2)CC1", "Ratio Ki": 73}

Task: Dear colleague, please send me the reported Ratio Ki for `CCCN(CC(F)(F)F)C(=O)NC1CCN(c2ncnc3c2nc(-c2ccccc2Cl)n3-c2ccc(Cl)cc2)CC1` when you can.
Result: 2500

====

molecular target: Sodium-dependent noradrenaline transporter (Homo sapiens, UniProt P23975); test: Displacement of [3H]nisoxetine from recombinant human norepinephrine transporter after 120 mins by scintillation counting analysis
endpoint_label: EC50

Task: Dear colleague, please send me the reported EC50 for `O=C(Nc1ccc(OC(F)F)nc1)NC1CCN(c2ncnc3c2nc(-c2ccccc2Cl)n3-c2ccc(Cl)cc2)CC1` when you can.
Result: > 10 µM

====

experiment: Displacement of [125I]alpha-dendrotoxin from rat brain voltage-gated potassium ion channel after 60 mins by scintillation counting analysis
endpoint_label: EC50

Task: Dear colleague, please send me the reported EC50 for `O=C(Nc1ccc(OC(F)F)nc1)NC1CCN(c2ncnc3c2nc(-c2ccccc2Cl)n3-c2ccc(Cl)cc2)CC1` when you can.
Result: > 10 µM

====

assay: Displacement of [3H]batrachotoxinin from rat brain voltage-gated sodium ion channel site 2 after 60 mins by scintillation counting analysis
endpoint_label: IC50

Task: Dear colleague, please send me the reported IC50 for `O=C(Nc1ccc(OC(F)F)nc1)NC1CCN(c2ncnc3c2nc(-c2ccccc2Cl)n3-c2ccc(Cl)cc2)CC1` when you can.
Result: > 10 µM

====

target: Sodium-dependent serotonin transporter (Homo sapiens); assay: Displacement of [3H]imipramine from recombinant human serotonin transporter after 120 mins by scintillation counting analysis
Sequence (P31645 whole entry): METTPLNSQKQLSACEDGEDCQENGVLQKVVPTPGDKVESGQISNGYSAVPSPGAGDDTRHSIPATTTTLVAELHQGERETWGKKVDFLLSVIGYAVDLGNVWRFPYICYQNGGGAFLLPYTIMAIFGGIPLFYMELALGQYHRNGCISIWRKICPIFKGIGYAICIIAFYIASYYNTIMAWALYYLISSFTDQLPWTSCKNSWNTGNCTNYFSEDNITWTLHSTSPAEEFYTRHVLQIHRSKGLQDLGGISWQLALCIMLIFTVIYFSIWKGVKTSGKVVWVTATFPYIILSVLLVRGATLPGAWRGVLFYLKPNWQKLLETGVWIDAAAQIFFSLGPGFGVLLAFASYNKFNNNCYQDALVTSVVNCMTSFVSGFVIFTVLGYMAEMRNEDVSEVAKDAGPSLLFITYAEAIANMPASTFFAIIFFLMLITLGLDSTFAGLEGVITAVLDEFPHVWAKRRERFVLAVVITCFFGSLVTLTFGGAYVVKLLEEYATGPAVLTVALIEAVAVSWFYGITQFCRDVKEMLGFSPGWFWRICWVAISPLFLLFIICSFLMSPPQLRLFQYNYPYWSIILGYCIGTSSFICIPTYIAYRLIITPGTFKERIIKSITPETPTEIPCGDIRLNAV
endpoint_label: EC50

Task: Dear colleague, please send me the reported EC50 for `O=C(Nc1ccc(OC(F)F)nc1)NC1CCN(c2ncnc3c2nc(-c2ccccc2Cl)n3-c2ccc(Cl)cc2)CC1` when you can.
Result: > 10 µM

====

molecular target: Glutamate NMDA receptor; assay: Displacement of [3H]CGP 39653 from rat brain NMDA receptor after 60 mins by scintillation counting analysis
endpoint_label: EC50

Task: Look up and report EC50, with Glutamate NMDA receptor as system, for `O=C(Nc1ccc(OC(F)F)nc1)NC1CCN(c2ncnc3c2nc(-c2ccccc2Cl)n3-c2ccc(Cl)cc2)CC1`
Result: > 10 µM

====

target: UniProt P06239; test: Activity at recombinant human LCK using Ulight-Poly GAT[EAY(1:1:1)]n as substrate measured after 10 mins by LANCE assay
Sequence (P06239 whole entry): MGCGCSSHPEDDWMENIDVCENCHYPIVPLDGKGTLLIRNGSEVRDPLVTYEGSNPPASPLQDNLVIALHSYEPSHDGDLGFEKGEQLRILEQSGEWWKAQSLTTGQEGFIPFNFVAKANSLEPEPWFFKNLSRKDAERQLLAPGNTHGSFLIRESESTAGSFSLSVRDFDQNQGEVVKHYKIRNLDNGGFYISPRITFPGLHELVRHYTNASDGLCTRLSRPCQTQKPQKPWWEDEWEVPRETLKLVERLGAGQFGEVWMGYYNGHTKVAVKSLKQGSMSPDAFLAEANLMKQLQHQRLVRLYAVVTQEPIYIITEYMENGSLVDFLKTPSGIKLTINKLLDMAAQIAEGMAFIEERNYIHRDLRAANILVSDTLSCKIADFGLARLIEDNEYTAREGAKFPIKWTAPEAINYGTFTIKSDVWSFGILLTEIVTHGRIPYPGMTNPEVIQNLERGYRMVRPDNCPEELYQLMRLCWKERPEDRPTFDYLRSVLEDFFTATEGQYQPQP
pIC50: −log10 of the molar value.
endpoint_label: pIC50

Task: Dear colleague, please send me the reported pIC50 for `O=C(Nc1ccc(OC(F)F)nc1)NC1CCN(c2ncnc3c2nc(-c2ccccc2Cl)n3-c2ccc(Cl)cc2)CC1` when you can.
Result: < 5.00
